- tested on: α-Glucosidase (AGS) (Saccharomyces cerevisiae, UniProt P53341)
- Sequence (P53341 whole entry): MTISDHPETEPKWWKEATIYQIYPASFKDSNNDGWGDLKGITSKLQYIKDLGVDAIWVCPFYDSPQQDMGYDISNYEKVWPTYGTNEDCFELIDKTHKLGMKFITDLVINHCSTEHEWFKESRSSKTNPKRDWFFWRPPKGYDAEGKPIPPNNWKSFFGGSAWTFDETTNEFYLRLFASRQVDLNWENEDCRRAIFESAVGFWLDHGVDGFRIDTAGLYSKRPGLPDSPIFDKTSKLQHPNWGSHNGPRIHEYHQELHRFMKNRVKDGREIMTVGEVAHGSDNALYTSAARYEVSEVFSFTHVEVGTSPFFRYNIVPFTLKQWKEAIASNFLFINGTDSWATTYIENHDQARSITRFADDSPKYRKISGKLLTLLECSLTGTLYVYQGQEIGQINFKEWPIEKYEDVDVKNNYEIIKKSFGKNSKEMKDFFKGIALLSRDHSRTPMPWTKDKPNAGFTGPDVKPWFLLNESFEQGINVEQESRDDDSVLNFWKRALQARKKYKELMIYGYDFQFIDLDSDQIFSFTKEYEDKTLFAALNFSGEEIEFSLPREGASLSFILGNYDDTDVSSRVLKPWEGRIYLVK
- method: Inhibition kinetics analysis (Lineweaver–Burk plots and secondary plots)
- Assay type: biochemical

- structure string: "O=C1N[C@@H](Cc2c[nH]c3ccccc23)C(=O)N[C@H]1CO"
  Ki: "149 µM"
- structure string: "CC[C@H](C)[C@@H]1NC(=O)[C@H](CC(C)C)NC1=O"
  Ki: "59.8 µM"
- structure string: "O=C1N[C@@H](Cc2c[nH]c3ccccc23)C(=O)N2CCC[C@@H]12"
  Ki: "43.9 µM"
- structure string: "CC[C@H](C)[C@@H]1NC(=O)[C@H](Cc2ccc(O)cc2)NC1=O"
  Ki: "95.5 µM"

Recorded values, source paper PMC10180428.
